The measurements presented in this section are drawn from paper PMC8508710.

Listed here: items and their measured Photometry Relative activity (%) LOX6.
target: LOX6 (Arabidopsis thaliana, UniProt Q9CAG3); experiment: LOX6 activity, spectrophotometric (conjugated diene formation at 234 nm); details: enzyme 0.225 µg/µL incubated 10 min 30 °C with 280 µM chemical; 4.8 µM LeA, 50 mM Tris-HCl pH 7.2; vs solvent control
Sequence (Q9CAG3 41-917): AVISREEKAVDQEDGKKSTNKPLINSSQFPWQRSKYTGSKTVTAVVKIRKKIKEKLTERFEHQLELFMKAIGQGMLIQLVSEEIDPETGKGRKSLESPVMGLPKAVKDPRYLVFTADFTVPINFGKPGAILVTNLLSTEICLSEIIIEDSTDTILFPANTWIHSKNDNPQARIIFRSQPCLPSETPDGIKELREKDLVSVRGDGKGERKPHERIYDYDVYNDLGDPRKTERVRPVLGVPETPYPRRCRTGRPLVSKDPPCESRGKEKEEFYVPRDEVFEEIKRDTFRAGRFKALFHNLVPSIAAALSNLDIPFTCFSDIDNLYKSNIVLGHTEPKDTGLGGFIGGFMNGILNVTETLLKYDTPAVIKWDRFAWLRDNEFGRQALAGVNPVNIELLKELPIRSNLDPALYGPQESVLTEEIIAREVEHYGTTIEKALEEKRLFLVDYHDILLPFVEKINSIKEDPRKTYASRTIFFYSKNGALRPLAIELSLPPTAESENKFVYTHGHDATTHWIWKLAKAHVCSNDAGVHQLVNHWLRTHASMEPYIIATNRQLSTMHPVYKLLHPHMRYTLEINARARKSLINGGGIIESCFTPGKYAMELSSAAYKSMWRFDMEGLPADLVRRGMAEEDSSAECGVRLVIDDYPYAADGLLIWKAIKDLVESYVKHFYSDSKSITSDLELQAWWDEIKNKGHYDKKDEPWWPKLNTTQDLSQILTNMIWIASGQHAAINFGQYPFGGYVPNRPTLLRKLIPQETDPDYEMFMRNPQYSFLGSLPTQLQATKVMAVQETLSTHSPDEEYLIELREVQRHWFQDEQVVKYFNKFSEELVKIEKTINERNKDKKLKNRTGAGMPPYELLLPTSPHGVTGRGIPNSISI
Please state the figure in %; there is no need to write the unit.

> print(dat)
                                   compound  reported.result
1  O=C(O)/C=C/CCCCCCCCC(=O)O [TA, traumatic acid]              100
2  CC/C=C\CC1C(=O)CCC1CC(=O)OC (stereo not shown) [MJ, methyl jasmonate]               86
3  CCC=CCC1C(=O)C=CC1CCCCCCCC(=O)O (stereo not drawn) [12-OPDA, cis-(+)-12-oxophytodienoic acid]               59

Give Photometry Relative activity (%) LOX6 for CCN1C(=O)C=CC1=O [NEM, N-ethylmaleimide]
13

----------
target: LOX2 (Arabidopsis thaliana); assay: LOX2 activity, spectrophotometric (conjugated diene formation at 234 nm); details: enzyme 0.225 µg/µL incubated 10 min 30 °C with 280 µM chemical; 4.8 µM LeA, 50 mM Tris-HCl pH 7.2; vs solvent control
Sequence (P38418 71-896): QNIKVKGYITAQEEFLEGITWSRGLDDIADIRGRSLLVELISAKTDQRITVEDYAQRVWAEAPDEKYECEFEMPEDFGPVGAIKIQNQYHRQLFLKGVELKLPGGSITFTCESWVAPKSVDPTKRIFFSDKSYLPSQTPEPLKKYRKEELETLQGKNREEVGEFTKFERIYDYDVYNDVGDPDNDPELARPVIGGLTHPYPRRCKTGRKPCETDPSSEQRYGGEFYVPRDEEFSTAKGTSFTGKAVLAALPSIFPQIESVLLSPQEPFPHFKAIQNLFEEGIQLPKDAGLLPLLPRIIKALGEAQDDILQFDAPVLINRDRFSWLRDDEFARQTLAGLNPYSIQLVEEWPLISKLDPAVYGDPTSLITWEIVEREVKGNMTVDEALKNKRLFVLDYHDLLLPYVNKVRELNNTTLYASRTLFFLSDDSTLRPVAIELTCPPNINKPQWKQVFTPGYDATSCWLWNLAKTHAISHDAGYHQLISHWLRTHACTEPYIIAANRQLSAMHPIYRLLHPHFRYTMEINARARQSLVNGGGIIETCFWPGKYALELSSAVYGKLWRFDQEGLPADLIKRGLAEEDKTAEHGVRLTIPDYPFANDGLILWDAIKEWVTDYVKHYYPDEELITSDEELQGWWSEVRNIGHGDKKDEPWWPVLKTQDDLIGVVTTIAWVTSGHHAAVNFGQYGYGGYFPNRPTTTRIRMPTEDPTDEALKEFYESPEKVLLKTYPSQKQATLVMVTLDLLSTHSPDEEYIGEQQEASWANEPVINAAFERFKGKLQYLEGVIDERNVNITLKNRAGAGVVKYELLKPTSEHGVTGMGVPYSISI
Listed here: items and their measured Photometry Relative activity (%) LOX2.
Please state the figure in %; there is no need to write the unit.

Give Photometry Relative activity (%) LOX2 for CCC=CCC1C(=O)C=CC1CCCCCCCC(=O)O (stereo not drawn) [12-OPDA, cis-(+)-12-oxophytodienoic acid]
49

----------
molecular target: LOX3 (Arabidopsis thaliana, UniProt Q9LNR3); assay: LOX3 activity, spectrophotometric (conjugated diene formation at 234 nm); conditions: substrate specificity; 31 µM PUFA, 4 µg 13-LOX, 50 mM Tris-HCl pH 7.2; LeA = 100%
Sequence (Q9LNR3 71-919): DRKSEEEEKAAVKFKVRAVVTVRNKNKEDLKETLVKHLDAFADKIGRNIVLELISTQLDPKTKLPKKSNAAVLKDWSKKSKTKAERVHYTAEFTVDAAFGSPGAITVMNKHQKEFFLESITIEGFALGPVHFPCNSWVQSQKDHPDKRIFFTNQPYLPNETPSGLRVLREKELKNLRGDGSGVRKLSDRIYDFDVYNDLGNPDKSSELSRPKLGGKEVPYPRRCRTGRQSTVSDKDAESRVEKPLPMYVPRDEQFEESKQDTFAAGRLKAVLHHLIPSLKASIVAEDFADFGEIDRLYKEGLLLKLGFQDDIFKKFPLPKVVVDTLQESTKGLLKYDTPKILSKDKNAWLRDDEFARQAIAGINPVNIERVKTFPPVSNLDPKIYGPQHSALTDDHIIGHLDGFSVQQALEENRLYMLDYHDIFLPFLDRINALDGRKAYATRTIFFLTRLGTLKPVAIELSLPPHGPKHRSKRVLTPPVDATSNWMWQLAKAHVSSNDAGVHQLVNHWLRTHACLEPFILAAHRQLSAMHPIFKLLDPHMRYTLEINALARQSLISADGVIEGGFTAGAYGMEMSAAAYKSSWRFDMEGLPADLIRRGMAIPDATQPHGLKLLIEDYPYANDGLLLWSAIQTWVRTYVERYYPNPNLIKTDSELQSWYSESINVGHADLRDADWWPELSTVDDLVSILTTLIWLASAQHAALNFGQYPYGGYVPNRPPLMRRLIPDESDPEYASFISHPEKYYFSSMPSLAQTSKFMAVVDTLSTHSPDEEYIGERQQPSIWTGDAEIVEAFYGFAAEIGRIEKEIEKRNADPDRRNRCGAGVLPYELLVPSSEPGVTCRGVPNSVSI
RECORDED METRIC: Relative Activity (%) LOX3
Please state the figure in %; there is no need to write the unit.

For orientation, consider the following solved cases.
> print(dat)
                                smiles.code             recorded.metric  reported.result
1  CC/C=C\C/C=C\C/C=C\C/C=C\C/C=C\C/C=C\CCC(=O)O  Relative Activity (%) LOX3                7
2          CC/C=C\C/C=C\C/C=C\CCCCCCCC(=O)O  Relative Activity (%) LOX3              100
3     CCCCC/C=C\C/C=C\C/C=C\C/C=C\CCCC(=O)O  Relative Activity (%) LOX3                5

Shifting focus to the compound that follows.
Please respond with reported Relative Activity (%) LOX3 (system LOX3 (Arabidopsis thaliana, UniProt Q9LNR3)) for CCCCC/C=C\C/C=C\CCCCCCCC(=O)O .
12

----------
Biological target: LOX4 (Arabidopsis thaliana, UniProt Q9FNX8)
Sequence (Q9FNX8 71-926): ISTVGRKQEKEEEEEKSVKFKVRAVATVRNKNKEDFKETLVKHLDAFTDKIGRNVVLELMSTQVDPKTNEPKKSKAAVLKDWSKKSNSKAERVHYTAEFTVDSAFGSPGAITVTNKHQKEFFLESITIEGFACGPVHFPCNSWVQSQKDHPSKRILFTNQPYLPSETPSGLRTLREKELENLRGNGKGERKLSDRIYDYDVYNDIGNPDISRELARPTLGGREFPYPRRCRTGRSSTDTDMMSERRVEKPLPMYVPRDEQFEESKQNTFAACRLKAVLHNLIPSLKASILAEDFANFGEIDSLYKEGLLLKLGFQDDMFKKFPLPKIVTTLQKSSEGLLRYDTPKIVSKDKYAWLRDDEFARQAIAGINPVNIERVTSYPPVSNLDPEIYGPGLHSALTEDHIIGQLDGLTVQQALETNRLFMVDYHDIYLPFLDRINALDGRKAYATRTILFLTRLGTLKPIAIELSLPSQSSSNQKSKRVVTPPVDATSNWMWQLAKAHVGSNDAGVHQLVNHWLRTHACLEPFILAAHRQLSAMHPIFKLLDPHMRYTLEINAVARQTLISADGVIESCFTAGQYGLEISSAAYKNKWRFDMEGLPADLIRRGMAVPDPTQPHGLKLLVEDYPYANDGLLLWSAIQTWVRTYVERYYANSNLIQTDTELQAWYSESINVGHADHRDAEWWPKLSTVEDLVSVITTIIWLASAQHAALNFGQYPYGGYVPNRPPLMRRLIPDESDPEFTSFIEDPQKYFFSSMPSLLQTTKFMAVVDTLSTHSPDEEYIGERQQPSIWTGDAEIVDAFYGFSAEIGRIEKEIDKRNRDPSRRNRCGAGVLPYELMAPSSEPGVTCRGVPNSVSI
RECORDED METRIC: IC50 (µM)
Please state the figure in µM; there is no need to write the unit.

Give IC50 for CCC=CCC1C(=O)C=CC1CCCCCCCC(=O)O (stereo not drawn) [12-OPDA, cis-(+)-12-oxophytodienoic acid]
48
